Molecular target: TXA2 receptors (Homo sapiens)
Construct: to Washed Human Platelets; endogenous in cells
Sequence (P21731 whole entry): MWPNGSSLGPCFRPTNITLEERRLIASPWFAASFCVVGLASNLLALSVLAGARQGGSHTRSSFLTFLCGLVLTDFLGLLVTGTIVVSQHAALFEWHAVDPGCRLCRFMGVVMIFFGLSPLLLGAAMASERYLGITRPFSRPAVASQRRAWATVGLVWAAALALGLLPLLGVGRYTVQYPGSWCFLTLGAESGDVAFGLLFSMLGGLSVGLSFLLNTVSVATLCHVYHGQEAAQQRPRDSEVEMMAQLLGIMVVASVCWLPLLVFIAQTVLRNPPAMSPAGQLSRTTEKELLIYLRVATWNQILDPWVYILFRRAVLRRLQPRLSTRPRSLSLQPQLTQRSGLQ
Experiment: Human platelet binding assay: inhibition of [^125 I]PTA-OH binding to washed human platelets
Settings: [^125 I]PTA-OH as receptor ligand, 50% inhibition of specific binding
Excerpt: As indicated above, compounds of the formula (I) have biological activity that is indicative of an ability to antagonise TXA2 receptors. The platelet binding assay used was essentially the method described by Mais et al, J. Pharm. Exp. Ther., 1985, 235(3), 729-734 where [^125 I]PTA-OH was used as the receptor ligand. The IC50 values represent the concentration which produces a 50% inhibition of specific [^125 I]PTA-OH binding. […]
endpoint-label: IC50 (nM)

Before answering, review these 2 worked examples.
O=C(O)CCCCCCCNS(=O)(=O)c1ccc(Cl)cc1 | 30
O=C(O)CCCCCCCCCNS(=O)(=O)c1ccc(Cl)cc1 | 60

I: O=C(O)CCCCCCCNS(=O)(=O)c1ccc(Cl)c(Cl)c1
II: O=C(O)CCCCCCCCCCNS(=O)(=O)c1ccc(Cl)cc1
Query: # argmax over IC50 for candidates I and II Could you answer with the label of the item you picked?
Response: II
